Target: T1, cynomolgus CD3 on HSC-F cells (cynomolgus, UniProt Q95LI5 22-198)
T1 construct: whole, on cells; also called Cyno HSC-F; cynomolgus HSC-F cells
T1 sequence (Q95LI5 22-198): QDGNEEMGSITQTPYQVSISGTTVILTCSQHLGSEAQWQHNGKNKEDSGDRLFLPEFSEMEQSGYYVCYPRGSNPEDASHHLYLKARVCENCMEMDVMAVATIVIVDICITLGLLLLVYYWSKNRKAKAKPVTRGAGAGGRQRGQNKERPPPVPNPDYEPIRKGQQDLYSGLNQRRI
Assay: flow cytometry, yeast-produced IgG 100 nM on HSC-F cells, pH 7.4
measured_property: NCB

Supply measured NCB of ADI-74967 (Antibody No. 5), human IgG1 (antibody, V domains shown, Tested as human IgG1 (yeast-produced aglycosylated, or CHO-produced)) VH: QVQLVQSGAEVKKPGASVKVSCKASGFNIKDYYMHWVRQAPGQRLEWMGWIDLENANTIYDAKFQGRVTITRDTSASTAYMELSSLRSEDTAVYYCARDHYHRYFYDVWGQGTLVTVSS VL: GIVMTQSPDSLAVSLGERATINCKSSQSLLNARTGKNYLAWYQQKPGQPPKLLIYWASTRESGVPDRFSGSGSGTDFTLTISSLQAEDVAVYYCKQSHSHRTFGGGTKVEIK in your reply. 81
